Biological target: GRB2 (Homo sapiens, UniProt P62993)
Sequence (P62993 whole entry): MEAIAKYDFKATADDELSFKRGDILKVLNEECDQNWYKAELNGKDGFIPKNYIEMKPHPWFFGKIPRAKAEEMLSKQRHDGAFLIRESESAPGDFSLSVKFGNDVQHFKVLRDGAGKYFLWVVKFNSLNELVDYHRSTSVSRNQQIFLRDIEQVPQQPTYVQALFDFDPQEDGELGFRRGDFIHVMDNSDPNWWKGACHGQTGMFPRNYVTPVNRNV
Assay: GRB001 binding to GRB2 by MST
Conditions: read-out: Kd, in vitro binding to GRB2 by MST
readout_type: pKd
Remember, pKd is on a log scale: it is -log10 of the molar concentration.

What value of pKd has been recorded for this entry: "O=C1Cc2cc(NC(=O)Nc3ccc(F)cc3)ccc2N1"
4.30

====

# log10 of EC50 listing for each entry below
Molecular target: GRB2 (Homo sapiens, UniProt P62993)
Assay: fluorescence anisotropy assay measuring GRB2 dimerization
Conditions: 100 nM Atto488 labeled GRB2; NB = No Binding (inability to induce GRB2 dimerization); read-out: EC50 anisotropy, compound induced GRB2 dimerization
Scale: log10; quantity: EC50; unit before log: µM

INSERT INTO measurements (compound, readout_type, readout_number) VALUES
  ('Cc1ccc(NC(=O)Nc2ccc3[nH]c(=O)[nH]c3c2)c(C)c1 [GRB026]', 'log10 of EC50', 0.91),
  ('O=C(Nc1cc(Cl)cc(Cl)c1)Nc1ccc2[nH]c(=O)[nH]c2c1 [GRB028]', 'log10 of EC50', 1.01),
  ('CCOC(=O)CNC(=O)Nc1ccc2[nH]c(=O)[nH]c2c1 [GRB027]', 'log10 of EC50', 1.00),
  ('Cc1cc(Br)ccc1NC(=O)Nc1ccc2[nH]c(=O)[nH]c2c1 [GRB020]', 'log10 of EC50', -0.12),
  ('Cc1ccc(NC(=O)Nc2ccc3[nH]c(=O)[nH]c3c2)c(C)c1 [GRB029]', 'log10 of EC50', 1.21),
  ('O=C1Cc2cc(NC(=O)NC(=O)c3ccccc3)ccc2N1 [GRB091]', 'log10 of EC50', 1.12);

So what's the measured log10 of EC50 for this one? Cc1ccc(NC(=O)Nc2ccc3[nH]c(=O)oc3c2)cc1 [GRB104]
0.49

# iterate: O=C(Cc1ccc(F)cc1)Nc1ccc2[nH]c(S)nc2c1 [GRB074]
2.31

====

Target: GRB2 (Homo sapiens)
Assay: fluorescence anisotropy assay measuring GRB2 dimerization
Settings: 100 nM Atto488 labeled GRB2; NB = No Binding (inability to induce GRB2 dimerization); read-out: EC50 anisotropy, compound induced GRB2 dimerization
pEC50: −log10 of the molar value.
Here, each record is paired with measured pEC50 data.

Worked examples, 2 compounds total:
INSERT INTO measurements (compound, test_system, readout_type, result) VALUES
  ('COc1cc(NC(=O)Nc2ccc3[nH]c(=O)[nH]c3c2)cc(OC)c1OC [GRB032]', 'GRB2 (Homo sapiens)', 'pEC50', '< 4.00'),
  ('COc1ccccc1NC(=O)Nc1ccc2[nH]c(=O)[nH]c2c1 [GRB051]', 'GRB2 (Homo sapiens)', 'pEC50', '< 4.00');

// lookup pEC50 for O=C(Nc1cc(F)cc(F)c1)Nc1ccc2[nH]c(=O)oc2c1 [GRB102]
< 4.00
